assay: Validation screen for small molecules that induce genotoxicity in human embryonic kidney (HEK293T) cells expressing luciferase-tagged ELG1 (AID 493106); settings: luminescence; series mostly up to 46.1 µM
Results filed as inconclusive are left out. The source made the active and inactive calls. The call rests on the fitted dose curve; in most records, active means well fitted activation curve with a large enough effect; inconclusive means small, poorly fitted or top-dose-only effect; inactive means no such curve, though single readings can be large or run the other way.
Your answer must be one of the following: yes for active, no for inactive

Please share the test call associated with `CCCCCCC(C)(C)c1ccc([C@@H]2C[C@H](O)CC[C@H]2CCCO)c(O)c1` .
no

Next:
Please share the test call associated with CC1(C(=O)O)C2CCC(O2)C1(C)C(=O)O (stereo unspecified) .
yes

Please share the test call associated with NC(C(=O)O)c1cc(=O)[nH]o1 (stereo unspecified) .
no

The measured values listed here are drawn from PubChem BioAssay (NCATS).
